Experiment: label from the status in PepcDB records
quantity_measured: protein production

>  <ordered_residues>
MGNLPPHYGGSVNLLIAALGVLGVASSGPLIAGTLGATSVTALAIAFWRNAIGAVVMAGPVVIREPKAFGRITRREFGWSAVAAVALAFHFACFITALQLTSVAAATALVCLQSGWIAVFQLFRGTRHRWPVLVGLGIAFGGVVAITGFDMGSSPEALLGDLLALAGGALAGLYTLAGGKARQSMGTGTYTTLCYGMCAAIVAVMALFSGQPLAGFDAGGWLGIIAITVCAQLVGHTAFNHLLATMSPLLVSMIILLEIPGAAILAAIFLNETLPAGTYAGLALILVGLAVVVSGQRRGRPVADRREAELGAD

>  <meas_value>
failed

$$$$
>  <ordered_residues>
MIGMDHLAIGTYEGFLIGYDIDTQPNDPKTTTGCTLRYAYAAHERSIRCIAGSFPILASASVDESIKVYQLDQLQELATLYDLQVPVNSVDIQLQGGLLSGGEDGKLVYYPYGGWSKPKYLKGHKGNVHSVALHPTGQICLSVARDKCLKLWKTNGDCVCSLELPDEAFIVKWTEDGQGWVIATQTSFSVHSLQTGLIQQWEYSTRLVCLCALTNDIFVVGGMDGHLRVGENKPIQVHKVDGGSLVKGIGVGRDGCIYSLSSKGVLEMVAPSRQLEIQNGVVKRYIE

>  <meas_value>
failed

$$$$

###

Experiment: label from the status in PepcDB records
quantity_measured: protein production

>  <ordered_residues>
MVWAPLGPPRTDCLTLLHTPSKDSPKMSLEWLVAWSWSLDGLRDCIATGIQSVRDCDTTAVITVACLLVLFVWYCYHVGREQPRPYVSVNSLMQAADANGLQNGYVYCQSPECVRCTHNEGLNQKLYHNLQEYAKRYSWSGMGRIHKGIREQGRYLNSRPSIQKPEVFFLPDLPTTPYFSRDAQKHDVEVLERNFQTILCEFETLYKAFSNCSLPQGWKMNSTPSGEWFTFYLVNQGVCVPRNCRKCPRTYRLLGSLRTCIGNNVFGNACISVLSPGTVITEHYGPTNIRIRCHLGLKTPNGCELVVGGEPQCWAEGRCLLFDDSFLHAAFHEGSAEDGPRVVFMVDLWHPNVAAAERQALDFIFAPGR

>  <quantity_measured>
protein production

>  <meas_value>
failed

$$$$
>  <ordered_residues>
MRNSCYTSSYRQPVSLVVEWVLIGGLAMQDKLHEIRVFENFQEELFETGHVIVTTEVVEKSLNYFGNAHGGYLFTLCDQVAGLVALSTGDYAVTLQSNINYLKAGHLSDQLKIEGLCVHNGKTTKLVEVLITNQEEKILTRATFTMYVTGSISE

>  <quantity_measured>
protein production

>  <meas_value>
failed

$$$$

###

Test: label from the status in PepcDB records

>  <ordered_residues>
ERLRGVSVEAPTRTGERWNALMDQIVEGVLAWHRIDSHGCVGNVDSTQENDWFSWYQQRVEVLWATLSNMNSPLMTLEDRAVLYRARAALNSLFAGFDDSSVLVHGNLTLRSMLKDPRSDQLLAMLNPGPMLWAPREYDLFRLSEEGMPSQLFYRYLSKAPVSESFVARRWLYTLWELVSRFIHTGNLDRTLFDNAAQQLLPWLE

>  <protein production>
failed

$$$$
>  <ordered_residues>
VTRAIILAHGYATASSIANVANRLLKSQLFESFDMPLDVTPEAIANQVMAYIESHALASGLIILVDMGSLNAIHRHFNRRLSTPMAIINNVSTGMAMYVGERILQGVMLEDIVREIGDDLAVEHQLYYPQTDKP

>  <protein production>
failed

$$$$
>  <ordered_residues>
MLAGADKVFLYAKPEQIEAFVAAAQSAGVRQVVLLSSVSVVMATSEQNPIARMHRTVELAIERSGLDWTFIRPGMFATNARWWWGESIRGEGVVRLPYPEAQNAPVHEKDMAALAVTALTEPGHSHQAYTVHGSESLTLRRQVEHIGEALGRPIRVETVSVEQAREEFAEKAPSNVAEALLRMWAAADGVPAPVSVIVDRITGRPAHTFAQWAADHADDFR

>  <protein production>
failed

$$$$

###

Test: label from the status in PepcDB records

>  <ordered_residues>
MQKPAVTVMVKAARLAGNVLLRGINKLDALNVVQKGRMDYASEVDADAEKVIIKELKRGYPEYAVFGEEGGVQGGKSGRYTWVIDPLDGTSNYLRGFPHYCVSIALVENGEPTDAVIFDPLRNELFTASRGAGAVLNDRRIRIAERKDLEGAMVHTGFPPRERARASAQLKCVDALLVQAEDVRRTGSAALDLAYVACGRADAYFEAGVKAWDIAAGVLLVREAGGRVCDYKGATPPRMDNMGPETQQIVAGNIKISDALQKVIVNTGYAREFDAKF

>  <protein production>
failed

$$$$
>  <ordered_residues>
MDTTCLVLTWMGSRVPIETIEEDGEFDWEAAVKEIDLACLKTTNAHPPITENLTKPPAKRQSTLDKFIGRTEPKPENHQVVSECGGNDNDNSLLVEIDPEAAKTWIYRGLLRLLTF

>  <protein production>
failed

$$$$
>  <ordered_residues>
MKAVFAKLGSDFFSTIVFVVLYFSTGNVALATIVAVLGAVGQFIYAKIKGQRLDVMAYASVALVVVLGGATLLTNDPRFVLIKPSVGHIAVGLLMLRRDWMLRYVPPIVAETIPDYVRIAGYAWAALMLLLGTGVIAAAMTGDIKVWTFYVMVIAPAFKVAAFAGQYLVFRIAIRSRRRAAVATAEPAASTPVTAEP

>  <protein production>
failed

$$$$

###

Assay: label from the status in PepcDB records
quantity_measured: protein production

Take a look at these entries with their results.
>  <ordered_residues>
MPHRCAAQVVAGYRSTVSLVLVEHPRPEIAQITLNRPERMNSMAFDVMVPLKEALAQVSYDNSVRVVVLTGAGRGFSPGADHKSAGVVPHVENLTRPTYALRSMELLDDVILMLRRLHQPVIAAVNGPAIGGGLCLALAADIRVASSSAYFRAAGINNGLTASELGLSYLLPRAIGSSRAFEIMLTGRDVSAEEAERIGLVSRQVPDEQLLDACYAIAARMAGFSRPGIELTKRTLWSGLDAASLEAHMQAEGLGQLFVRLLTANFEEAVAARAEQRAPVFTDDT

>  <protein production>
failed

$$$$
>  <ordered_residues>
EVPIGFDTDELSFDMSLVLLTGDMQTKASDPNYTYATTEELTIQNCHVAVFDKDGKRIYFKNFYSKDLGEMKTIGNLSGYELQLEGVRTFGKEDKKVSVLVVANANNANNSPFDNLTTYDGVDNSYTAKTIAKGPVTASLLVKIGKSETTLKYNQDNAPVTVSLIQLSAKIEYTGVYKKENGELLEGFSLTKVAGLNASSKITIFNTSAVENGAFSDLAYPTTKPVTFYTYEISDAFKEVILSVQSGVEPKEYPFPANKFIKGNYYRIKGLKSSTEIEWVLENVEDKEVTLDPFE

>  <protein production>
not failed

$$$$
>  <ordered_residues>
MNEPLHLYVHIPFCLKKCRYCSFVSRSDAPLAIDDYASLVAREMEMRVAAANPLPLSPATTLYLGGGTPSLLSPAALERIIDAAARSYGLGPGAEITLEANPGTVTFQRLADFRSAGVNRLSLGVQSFDDGMLVLLGRLHTARQAREAVAATRRAGFDNIGIDLIHSLPGQTPDQWREQLACAVALNPDHVSAYGLTVEEGTPFAAMEERGELVLPDEEQSALMFEATTDVLVSAGFEHYEIANFARPHRRSRHNQVYWLRRNYLGFGAGAHSFLRAPAFGVRWKNTDDLELYRDTLAAAELPGEERTVLSRADAMAEFFFLGLRLLDGVREEDFVREFGDTMENVYGREMERLCSAGLLMREGGRLKLSRRGVILANRVFASFL

>  <protein production>
failed

$$$$
>  <ordered_residues>
MNVFARSSVLAAEMIDVFDRTHTEKELVFQSKELCRDFIHSRITREGLSWSKVELDLPEPRGVLVDVSVVLLKLGDELECMRPYVYRNIAKQLNISVSVEAVVSDAFLSVATEVIAMGITWGKVVAIYAVAAGLAVDCVRLGHPVMVHTIVDSLGEFVRRSLVPWLKKRGGWVDILKCVVNMDSRAHVHWLSTAVLTWREFIKTMYVYLTK

>  <protein production>
failed

$$$$

Batch lookup, protein production per entry.
1. MPKPHETAVYTHGHHESVLRSHTWRTAENSAAYLLGSLRPHMRILDIGCGPGTITADLAERVPEGHVTGVDRSPEIVERARATAAARGLENTGFAVADVHALDYPDDTFCVVHAHQVLQHVGDPVRALREMRRVARPGGFIAVRDSDYGAMTWYPASSGMDDWLDLYHRVARANGGEPDAGRRLKAWALEAGFTDITATSATWTFTTPEEREWWSGLWADRTLASAYAERATEGGHATPERLRAVSAAWRDWGKHPESWFSVLHGEILCRKEA
2. DEVENLYTQVADNEYLVQGRMLIDEFNEVFETDLHMSDVDTMAGYLITALGTIPDEGEKPSFEVGNIKLTAEEMEGTRLLVLRVHFYDEE
3. ILARTKIFPWFFDLKRNKMLIDAHWFSYLGIPAGDCEITIEKFFSRVHPNERDMLADALQKQLSEKEIPDSFSYRLQRGDGSWEWFSEQSMYLSKTNDGSPYRIVGVCHSIQEHKNT

A:
failed
not failed
failed
